Sourced from PubChem BioAssay (NCI)

Listed below: TGI values for each entry.
# Tested on: CCRF-CEM leukemia
# Assay Text: NCI tumour cell line growth inhibition, 48 h
Measure Name: TGI (µM)

Compound: C=C(C)COc1cc(NC(=S)OC(C)C)ccc1Cl
Measure Name: TGI
Unit Abbrev: µM
Sign: =
Experimental Value: 39.2

Compound: Cc1ccc(NC(=O)CC2SC(=Nc3ccc(Cl)cc3)NC2=O)cc1C (stereo not given)
Measure Name: TGI
Unit Abbrev: µM
Sign: =
Experimental Value: 11

Compound: COc1ccc(/C=C/C(=O)/C=C(O)/C=C/c2ccc(OC)c(OC)c2)cc1OC
Measure Name: TGI
Unit Abbrev: µM
Sign: >
Experimental Value: 100

Compound: Cc1c(C(=O)c2ccccc2)[n+](=O)c2cc(F)c(F)cc2n1[O-]
Measure Name: TGI
Unit Abbrev: µM
Sign: =
Experimental Value: 2.89

Compound: Nc1nc(N)c2c(n1)CCC(S(=O)(=O)c1ccc3ccccc3c1)C2 (stereo not given)
Measure Name: TGI
Unit Abbrev: µM
Sign: >
Experimental Value: 100

Compound: CCOc1cc2c(cc1O)C(=O)C[C@@H]1[C@@H]2CC[C@]2(C)[C@@H](O)CC[C@@H]12
Measure Name: TGI
Unit Abbrev: µM
Sign: >
Experimental Value: 100

Compound: Nc1ccc(C2SCC(=O)N2NS(=O)(=O)c2cccc(C(=O)O)c2)cc1 (stereo not given)
Measure Name: TGI
Unit Abbrev: µM
Sign: >
Experimental Value: 100

Compound: N#C/C(=C\c1ccc[nH]1)C(=O)c1ccccc1
Measure Name: TGI
Unit Abbrev: µM
Sign: >
Experimental Value: 100

Compound: Clc1ccccc1C1SCc2nc3ccccc3n21 (stereo not given)
Measure Name: TGI
Unit Abbrev: µM
Sign: >
Experimental Value: 100

Compound: O[C@@]12Cc3c([nH]c4ccccc34)[C@@H]3Oc4c(-c5ccccc5)ccc5c4[C@@]31CCN(CC1CC1)[C@@H]2C5
Measure Name: TGI
Unit Abbrev: µM
Sign: =
Experimental Value: 7.56

====

# Test system: MDA-MB-435
Outcome codes: y = active, n = inactive

Compound: COc1cc(C(=O)NN=C2c3ccccc3-c3ccccc32)cc(OC)c1OC
Cat: y
--
Compound: CC(=O)N[C@@H](Cc1ccc(OP(=O)(O)O)cc1)C(=O)N[C@H]1CCC(=O)N2CCC[C@@H](C(=O)NC3CCc4ccccc43)N2C1=O (some centres undefined)
Cat: n
--
Compound: Nc1ncnc2c1ccn2-c1cccc(NC(=O)c2ccc(N3CCOCC3)c(C(F)(F)F)c2)c1
Cat: n
--
Compound: CC[C@@H](C)/C=C(C)/C=C/C(=O)c1c(O)c(-c2ccc(O)cc2)cn(OC2CC(=O)CCC(C)OC(=O)CC2O)c1=O (some centres undefined)
Cat: n
--
Compound: Fc1ccc(Nc2nc3nonc3nc2Nc2ccc(I)cc2)cc1
Cat: y
--
Compound: C=CC(=O)N1CCC[C@@H](n2nc(-c3ccc(Oc4ccccc4)cc3)c3c(N)ncnc32)C1
Cat: n
--
Compound: Cc1cc(C)c2c(c1)N(C)c1ncnc(-n3cnc4cc(C)ccc43)c1CC2C (centres undefined)
Cat: n
--
Compound: CCOc1ccc2c(c1)C(=O)c1c-2n(CCCN=[N+]=[N-])c(=O)c2cc([N+](=O)[O-])ccc12
Cat: n
--
Compound: O=C(/C=C/C=C/c1ccc2c(c1)OCO2)N/N=C\c1ccc(O)cc1O
Cat: n
--
Compound: O=C1OCC2=C1C(c1cccc(Cl)c1)c1cc3c(cc1N2CCO)CCC3 (centres undefined)
Cat: y
--
Compound: CC1[C@@H]2CC=C3[C@H]4CCC5Cc6nc7c(nc6C[C@@]5(C)C4CC(=O)[C@]32CO[C@]12OC(C)(C)CC2O)CC1CC[C@@H]2C3=C[C@H]4O[C@@]5(O[C@@](C)(CO)C[C@@H]5O)C(C)[C@@]4(O)[C@]3(C)[C@@H](O)CC2[C@]1(C)C7 (some centres undefined)
Cat: y
--
Compound: CCCCOC(=O)c1c(C)[nH]c(/C=C2\N=C(c3ccc[nH]3)C=C2OC)c1C
Cat: y
--
Compound: O=c1/c(=C\c2ccc(Br)cc2)sc2n1C(c1ccc(Br)cc1)C1=C(N=2)c2ccc3ccccc3c2OCC1 (centres undefined)
Cat: n
--
Compound: COc1cc(C2CC(c3cccc(Nc4ccnc5cc(Cl)ccc45)c3)=NN2c2ccccc2)cc(OC)c1OC (centres undefined)
Cat: n
